Test: Inhibition of STX (unknown origin)-induced toxicity in human HeLa cells assessed as protection against toxin-induced inhibition of protein biosynthesis by measuring incorporation of [14C]-leucine into cells preincubated for 1 hr followed by toxin challenge measured after 20 hrs by liquid scintillation counting analysis
Type: cell-based
property.measured: EC50 (µM)

{"compound": "Cc1nc(-c2ccc([C@H]3N(C)c4ccc(F)cc4C(=O)N3c3ccccc3)s2)cs1", "property.measured": "EC50", "unit.string": "µM", "reported.value": 0.054}
{"compound": "Cc1ccc(/C=N/c2ccccc2C(=O)Nc2ccccc2)s1", "property.measured": "EC50", "unit.string": "µM", "reported.value": 27}
{"compound": "Cc1nc(-c2ccc(C3N(C)c4ccc(F)cc4C(=O)N3c3ccccc3)s2)cs1 (racemic)", "property.measured": "EC50", "unit.string": "µM", "reported.value": 0.102}
{"compound": "Cc1nc(-c2ccc([C@@H]3N(C)c4ccc(F)cc4C(=O)N3c3ccccc3)s2)cs1", "property.measured": "EC50", "unit.string": "µM", "reported.value": 2.4}

Where do these numbers come from? They come from ChEMBL document CHEMBL3108768.
